Biological target: T1, human growth hormone secretagogue related receptor (GHSR-R) (human, UniProt Q9HB89 24-426)
T1 construct: also called human GHSR-R; FM-3
T1 sequence: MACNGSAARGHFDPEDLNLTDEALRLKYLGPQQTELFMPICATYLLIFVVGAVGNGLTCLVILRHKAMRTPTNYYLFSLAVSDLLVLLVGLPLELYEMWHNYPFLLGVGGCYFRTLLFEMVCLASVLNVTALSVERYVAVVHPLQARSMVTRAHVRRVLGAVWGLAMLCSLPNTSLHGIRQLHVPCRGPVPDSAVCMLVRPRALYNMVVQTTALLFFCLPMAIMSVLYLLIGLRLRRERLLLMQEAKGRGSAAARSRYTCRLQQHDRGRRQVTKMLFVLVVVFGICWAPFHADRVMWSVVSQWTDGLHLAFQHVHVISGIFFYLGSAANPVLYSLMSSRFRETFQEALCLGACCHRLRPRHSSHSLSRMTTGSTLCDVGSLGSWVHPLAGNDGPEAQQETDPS
Assay: radioligand competition on membranes of HEK293 cells stably expressing human GHSR-R (summary of Example 10)
Ends that are not written are not given here.
MEASUREMENT_LABEL: IC50 (nM)
Numbers only, in nM.

Query: Requested field: IC50. Item: YKVNEYQGPVAPSGGFFLFRPRN-NH2 (peptide, UniProt P12760 144-166, looked up, mature; also called unlabeled rat neuromedin U-25; Neuromedin U-25 (rat)) [rat neuromedin U-23 (rat NMU-23)]
Reply: 3
